target: human recombinant GPR65 (Homo sapiens, UniProt Q8IYL9); assay: Human GPR65 cAMP HTRF antagonist assay; settings: 1321N1-hrGPR65 cells stimulated at assay pH 7.2; suppression of cAMP rise; read-out: hGPR65 IC50
Sequence (Q8IYL9 whole entry): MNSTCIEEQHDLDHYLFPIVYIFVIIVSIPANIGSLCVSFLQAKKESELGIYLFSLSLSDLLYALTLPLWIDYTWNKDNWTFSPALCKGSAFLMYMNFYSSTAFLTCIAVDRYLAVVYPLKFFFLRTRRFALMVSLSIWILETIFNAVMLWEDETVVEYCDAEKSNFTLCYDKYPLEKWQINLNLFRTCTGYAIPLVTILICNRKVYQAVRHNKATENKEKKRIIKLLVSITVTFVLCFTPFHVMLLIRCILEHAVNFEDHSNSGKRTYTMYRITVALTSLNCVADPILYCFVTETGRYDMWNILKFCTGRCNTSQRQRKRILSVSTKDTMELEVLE
property: IC50

                                   compound                       experimental_target  property  measured
0  Cn1cc2c(cc1=O)CCN(C(=O)Nc1ccc(Cl)c(Cl)c1)C2 [Compound 92]  human recombinant GPR65 (Homo sapiens, UniProt Q8IYL9)      IC50    > 5 µM

Exam item: I'd like to know its IC50. The compound in question is O=C(Nc1ccc(C(F)(F)F)c(Cl)c1)N1CCc2c[n+]([O-])ccc2C1 [Compound 79]
Marked response: < 0.5 µM

Exam item: I'd like to know its IC50. The compound in question is O=C(Nc1ccc(C(F)(F)F)c(Cl)c1)N1CCc2oncc2C1 [Compound 26]
Marked response: 0.5 to 5 µM

Exam item: I'd like to know its IC50. The compound in question is O=C(Nc1ccc(C(F)(F)F)c(Cl)c1)N1CCc2cc(Cl)ncc2C1 [Compound 91]
Marked response: 0.5 to 5 µM

Exam item: I'd like to know its IC50. The compound in question is O=C(Nc1ccc(C(F)(F)F)c(Cl)c1)N1CCc2cncnc2C1 [Compound 9]
Marked response: > 5 µM

Exam item: I'd like to know its IC50. The compound in question is COc1cccc2c1CN(C(=O)Nc1ccc(Cl)c(Cl)c1)CC2 [Compound 64]
Marked response: 0.5 to 5 µM

---

biological target: human recombinant GPR65 (Homo sapiens, UniProt Q8IYL9); experiment: Human GPR65 cAMP HTRF antagonist assay; conditions: 1321N1-hrGPR65 cells stimulated at assay pH 7.2; suppression of cAMP rise; read-out: hGPR65 IC50
pIC50: −log10 of the molar value.
property: pIC50

Consider the worked cases shown below.
                                   molecule      measured
0  O=C(Nc1ccc(Cl)c(Cl)c1)N1CCc2ccc(Cl)cc2C1  5.30 to 6.30
1  O=C(Nc1ccc(C(F)(F)F)c(Cl)c1)N1CCc2cnc(F)cc2C1  5.30 to 6.30
2  CC1c2ccc(F)cc2CCN1C(=O)Nc1ccc(Cl)c(Cl)c1 (stereo not drawn)        > 6.30

Exam item: I'd like to know its pIC50. The molecule in question is `O=C(Nc1ccc(Cl)c(Cl)c1)N1CCc2cccnc2C1`
Marked response: < 5.30

---

molecular target: human recombinant GPR65 (Homo sapiens, UniProt Q8IYL9); assay: Human GPR65 cAMP HTRF antagonist assay; settings: 1321N1-hrGPR65 cells stimulated at assay pH 7.2; suppression of cAMP rise; read-out: hGPR65 IC50
IC50 reference

Consider the worked cases shown below.
In [3]: df
Out[3]:
                                   molecule  property  measured
0  O=C(Nc1ccc(C(F)(F)F)c(Cl)c1)N1CCc2ccc(Cl)cc2C1 [Compound 30]      IC50  < 0.5 µM
1  O=C(Nc1ccc(C(F)(F)F)c(Cl)c1)N1CCc2cc(C(F)(F)F)ccc2C1 [Compound 72]      IC50    > 5 µM
2  O=C(Nc1ccc(Cl)c(Cl)c1)N1CCc2cc3nncn3cc2C1 [Compound 109]      IC50  < 0.5 µM

Exam item: I'd like to know its IC50. The molecule in question is COC(=O)c1ccc2c(c1)CN(C(=O)Nc1ccc(Cl)c(Cl)c1)CC2 [Compound 131]
Marked response: 0.5 to 5 µM

Exam item: I'd like to know its IC50. The molecule in question is CS(=O)(=O)c1ccc2c(c1)CCN(C(=O)Nc1ccc(C(F)(F)F)c(Cl)c1)C2 [Compound 124]
Marked response: > 5 µM

Exam item: I'd like to know its IC50. The molecule in question is O=C(Nc1ccc(Cl)c(Cl)c1)N1CCc2cc(O)ccc2C1 [Compound 95]
Marked response: > 5 µM

---

pIC50 reference
target: human recombinant GPR65 (Homo sapiens, UniProt Q8IYL9); experiment: Human GPR65 cAMP HTRF antagonist assay; conditions: 1321N1-hrGPR65 cells stimulated at assay pH 7.2; suppression of cAMP rise; read-out: hGPR65 IC50
pIC50: −log10 of the molar value.

Consider the worked cases shown below.
                                   compound      measured
0  COc1ccc2c(c1)CCN(C(=O)Nc1ccc(Cl)c(Cl)c1)C2 [Compound 65]        < 5.30
1  O=C(Nc1ccc(Cl)c(Cl)c1)N1CCc2c(ccnc2F)C1 [Compound 120]        > 6.30
2  O=C(Nc1ccc(Cl)c(C(F)(F)F)c1)N1CCc2cnccc2C1 [Compound 13]  5.30 to 6.30
3  O=C(Nc1ccc(C(F)(F)F)c(Cl)c1)N1CCc2c(F)cccc2C1 [Compound 36]        > 6.30
4  O=C(Nc1ccc(C(F)(F)F)c(Cl)c1)N1CCc2cccnc2C1 [Compound 19]  5.30 to 6.30
5  O=C(Nc1ccc(Cl)c(C(F)(F)F)c1)N1CCc2cc(F)ccc2C1 [Compound 43]        > 6.30
6  N#Cc1cc2c(cn1)CCN(C(=O)Nc1ccc(Cl)c(Cl)c1)C2 [Compound 103]  5.30 to 6.30
7  O=C(Nc1ccc(C(F)(F)F)c(Cl)c1)N1CCc2cc(F)c(F)cc2C1 [Compound 108]        > 6.30

Exam item: I'd like to know its pIC50. The compound in question is O=C(Nc1ccc(Cl)c(C(F)(F)F)c1)N1CCc2cncnc2C1 [Compound 7]
Marked response: 5.30 to 6.30

Exam item: I'd like to know its pIC50. The compound in question is O=C(Nc1ccc(Cl)c(C(F)(F)F)c1)N1CCc2ccc(F)cc2C1 [Compound 32]
Marked response: 5.30 to 6.30

Exam item: I'd like to know its pIC50. The compound in question is COc1cc2c(cn1)CCN(C(=O)Nc1ccc(Cl)c(Cl)c1)C2 [Compound 105]
Marked response: < 5.30

Exam item: I'd like to know its pIC50. The compound in question is O=C(Nc1ccc(Cl)c(Cl)c1)N1CCc2cc(-c3cccnc3F)ccc2C1 [Compound 126]
Marked response: 5.30 to 6.30

Exam item: I'd like to know its pIC50. The compound in question is O=C(Nc1ccc(Cl)c(C(F)(F)F)c1)N1CCc2cc(=O)[nH]cc2C1 [Compound 89]
Marked response: 5.30 to 6.30

Exam item: I'd like to know its pIC50. The compound in question is N#Cc1ccc2c(c1)CN(C(=O)Nc1ccc(Cl)c(Cl)c1)CC2 [Compound 49]
Marked response: 5.30 to 6.30

---

target: human recombinant GPR65 (Homo sapiens, UniProt Q8IYL9); assay: Human GPR65 cAMP HTRF antagonist assay; settings: 1321N1-hrGPR65 cells stimulated at assay pH 7.2; suppression of cAMP rise; read-out: hGPR65 IC50
property: IC50

                            chemical_string  property     measured
0  O=C(Nc1ccc(C(F)(F)F)c(Cl)c1)N1CCc2ncncc2C1      IC50  0.5 to 5 µM
1  N#Cc1ccc2c(c1)CCN(C(=O)Nc1ccc(Cl)c(C(F)(F)F)c1)C2      IC50  0.5 to 5 µM

Now consider a different molecule.
Exam item: I'd like to know its IC50. The molecule in question is `O=C(Nc1ccc(Cl)c(Cl)c1)N1CCc2oncc2C1`
Marked response: 0.5 to 5 µM

---

pIC50 reference
Biological target: human recombinant GPR65 (Homo sapiens, UniProt Q8IYL9)
Experiment: Human GPR65 cAMP HTRF antagonist assay
Details: 1321N1-hrGPR65 cells stimulated at assay pH 7.2; suppression of cAMP rise; read-out: hGPR65 IC50
Method: Human GPR65 Cyclic Adenosine Monophosphate (cAMP) Homogeneous Time Resolved Fluorescence (HTRF) Antagonist Assay Procedure IC50 data was obtained by the following procedure: […] Accumulation of cAMP was detected by cAMP HTRF kit (Cisbio). d2-labeled cAMP and cryptate-labeled anti-cAMP antibody in Lysis and Detection Buffer (Cisbio) were added to assay plates, and the plates were incubated at room temperature for 1 h. […]
pIC50: −log10 of the molar value.

Consider the worked cases shown below.
>>> df
                            chemical_string                       experimental_target  property      measured
0  O=C(Nc1ccc(C(F)(F)F)c(Cl)c1)N1CCc2cccc(F)c2C1  human recombinant GPR65 (Homo sapiens, UniProt Q8IYL9)     pIC50  5.30 to 6.30
1   O=C(Nc1ccc(Cl)c(Cl)c1)N1CCc2cc(F)ccc2C1  human recombinant GPR65 (Homo sapiens, UniProt Q8IYL9)     pIC50        > 6.30
2  CS(=O)(=O)c1ccc2c(c1)CCN(C(=O)Nc1ccc(Cl)c(Cl)c1)C2  human recombinant GPR65 (Homo sapiens, UniProt Q8IYL9)     pIC50        < 5.30

Exam item: API: value(readout= pIC50, system= human recombinant GPR65 (Homo sapiens, UniProt Q8IYL9), query= `O=C(Nc1ccc(Cl)c(Cl)c1)N1CCc2cc(=O)[nH]cc2C1` )
Marked response: > 6.30

Exam item: API: value(readout= pIC50, system= human recombinant GPR65 (Homo sapiens, UniProt Q8IYL9), query= `O=C(Nc1ccc(Cl)c(Cl)c1)N1CCc2cnc(F)cc2C1` )
Marked response: 5.30 to 6.30

Exam item: API: value(readout= pIC50, system= human recombinant GPR65 (Homo sapiens, UniProt Q8IYL9), query= `Nc1cc2c(cn1)CCN(C(=O)Nc1ccc(Cl)c(Cl)c1)C2` )
Marked response: > 6.30

Exam item: API: value(readout= pIC50, system= human recombinant GPR65 (Homo sapiens, UniProt Q8IYL9), query= `O=C(Nc1ccc(Cl)c(Cl)c1)N1CCc2cn3ncnc3cc2C1` )
Marked response: < 5.30

Exam item: API: value(readout= pIC50, system= human recombinant GPR65 (Homo sapiens, UniProt Q8IYL9), query= `O=C(Nc1ccc(C(F)(F)F)c(Cl)c1)N1CCc2ccncc2C1` )
Marked response: 5.30 to 6.30

Data provenance is patent US20230174530A1.
